tested on: UO-31 renal; assay: NCI-60 one-dose screen, 48 h (100 = growth as untreated, 0 = no growth, -100 = all killed); conditions: 10 µM unless noted
The panel holds about 83,000 compounds, 20% with a hit somewhere; the sample as a whole holds those more often.
Readout label: growth (%)
Numeric answer only, unit % assumed.

{"Entry smiles": "COc1ccc(NC(=O)Cn2cc(CN3C(=O)c4ccc([N+](=O)[O-])cc4C3=O)nn2)cc1", "Readout label": "growth", "Result value": 88.1}
{"Entry smiles": "COc1ccc(CCN2C(=O)CSC2=S)cc1OC", "Readout label": "growth", "Result value": 83}

Here is another compound to look at.
So what does the record say about growth for O=C1c2c(c3c4cc(O)ccc4oc3c3[nH]c4ccccc4c23)C(=O)N1O ?
-40.1

* * *

test system: SW-620 colon; assay: NCI-60 one-dose screen, 48 h (100 = growth as untreated, 0 = no growth, -100 = all killed); conditions: 10 µM unless noted
Compounds without any hit were thinned out: in the full panel of roughly 83,000, 20% have a hit.
One threshold, 30%, splits the recorded growth values: lower ones are met, equal or higher ones are not met.

Would you please look over these solved cases?
{"Compound": "CCc1ccc(NC(=O)N[C@@H](Cc2cccc(C)c2)C(=O)N[C@@H]2C(=O)N3CCC[C@H]3C(=O)N3CCCC[C@H]3C(=O)N[C@@H](CO)C(=O)N3C[C@H](C)C[C@H]3C(=O)O[C@H]2C)c(F)c1", "System tested": "SW-620 colon", "Classification": "not met"}
{"Compound": "Cc1nn(-c2ccc(Cl)cc2)c(C)c1N=Nc1ccc2oc(=O)ccc2c1", "System tested": "SW-620 colon", "Classification": "not met"}
{"Compound": "CC(C)C[C@H]1C(=O)O[C@H](C(C)C)C(=O)N(C)[C@@H](C(C)C)C(=O)O[C@H](C(C)C)C(=O)N(C)[C@@H](C(C)C)C(=O)O[C@H](C(C)C)C(=O)N1C", "System tested": "SW-620 colon", "Classification": "met"}
{"Compound": "C/C(=C(/C)C1CC1CCN(C(=O)c1ccc([N+](=O)[O-])cc1)S(=O)(=O)c1ccc(C)cc1)C1CCCCC1 (stereo not drawn)", "System tested": "SW-620 colon", "Classification": "not met"}
{"Compound": "Cc1ccc(-c2cc3nc(C(Cl)Cl)nc(-c4ccccc4)n3n2)cc1", "System tested": "SW-620 colon", "Classification": "not met"}
{"Compound": "N#Cc1c(NC(=O)c2ccc(F)c(Cl)c2)sc2c1CCC(=O)C2", "System tested": "SW-620 colon", "Classification": "met"}
{"Compound": "NC(=O)N1N=C(c2cc3ccccc3oc2=O)CC1c1cn(-c2ccccc2)nc1-c1ccc(Cl)cc1 (stereo not drawn)", "System tested": "SW-620 colon", "Classification": "not met"}

In plain terms, does Cn1cc(-c2nn3cc(-c4cccnc4)nc3s2)c2ccccc21 come in under 30% for growth?
met

* * *

Below is a list of entries, each paired with its recorded growth value.
tested on: KM12 colon; assay: NCI-60 one-dose screen, 48 h (100 = growth as untreated, 0 = no growth, -100 = all killed); conditions: 10 µM unless noted
The panel holds about 83,000 compounds, 20% with a hit somewhere; the sample as a whole holds those more often. Active and inactive are the calls of the source. How the source made its calls: active means growth percent below 10; inactive means the rest.

Examples with their reported growth follow.
{"Molecule": "CCOC(=O)C1=C(C)N=C2Sc3ccccc3N2C1c1ccccc1 (centres undefined)", "growth": "93.9% (inactive)"}
{"Molecule": "O=S(=O)(Nc1ccc(-n2cnc3cc(-c4ccc(O)cc4)ccc32)cc1)C1CC1", "growth": "68.7% (inactive)"}
{"Molecule": "COc1ccc(N2C(=O)c3cc(OC)c(OC)cc3NC2SCc2ccccc2)cc1 (centres undefined)", "growth": "108% (inactive)"}

So what does the record say about growth for C(=C(\C1=NCCN1)n1cnc2ccccc21)/c1cccc2ccccc12 ?
42.5% (inactive)

So what does the record say about growth for CS(=O)(=O)c1nccc(-c2c(-c3ccc(F)c(OCCc4ccccc4)c3)nc3sccn23)n1 ?
77.5% (inactive)

So what does the record say about growth for O=C(CN1CCN(c2cc(=O)n(-c3ccccc3)c3ccccc23)CC1)Nc1ccc([N+](=O)[O-])cc1 ?
92.9% (inactive)

So what does the record say about growth for COc1ccc(Cn2cc3c(c2-c2cc(OC)c(OC)c(OC)c2)CCCc2cnoc2-3)cc1N ?
26.1% (inactive)

So what does the record say about growth for Cc1cn(-c2cc(NC(=O)c3cncc(C#Cc4cnc5ccc(O[C@@H]6CCOC6)nn45)c3)cc(C(F)(F)F)c2)cn1 ?
-21.5% (active)

So what does the record say about growth for C=CCn1c(SCC(=O)Nc2cccc(C(=O)/C=C/c3ccc(Br)cc3)c2)nc2ccccc2c1=O ?
81.3% (inactive)

So what does the record say about growth for COc1ccc(C2C(C#N)=C(N)Oc3c2sc2ccc(C)cc32)cc1 (centres undefined) ?
24.2% (inactive)

So what does the record say about growth for N#C/C(=C\c1ccc(Cl)cc1Cl)C(N)=O ?
103% (inactive)

So what does the record say about growth for COC(=O)[C@@]1(C)CC[C@]2(C)CC[C@]3(C)C(=CC(=O)[C@@H]4[C@@]5(C)Cc6c(n(CC#CCN7CCN(C)CC7)c7ccccc67)C(C)(C)[C@@H]5CC[C@]43C)[C@@H]2C1 ?
52.8% (inactive)

Provenance of the data: PubChem BioAssay (NCI)
